Measured values drawn from patent US20210309732A1 for this set.

Catalogue of binders with associated binding affinity % of 1D2
- System: T1, recombinant human GM-CSF (human, UniProt P04141 18-144)
- T1 construct: also called rhGM-CSF; CSF2
- T1 sequence (P04141 18-144 limits assumed): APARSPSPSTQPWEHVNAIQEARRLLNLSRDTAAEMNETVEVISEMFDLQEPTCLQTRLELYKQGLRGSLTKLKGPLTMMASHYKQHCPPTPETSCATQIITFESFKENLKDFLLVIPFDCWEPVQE
- Experiment Description: ELISA on coated rhGM-CSF, UBA relative to 1D2
In your response, put the unit directly after the numeric value.

These solved cases illustrate the format of a correct answer.
1. 1D2 SDR mutant HY103Q (antibody, IgG1, V domains shown, also called X6 Q) VH: QVQLVQSGAEVKKPGASVKVSCEASGYTFTDKYLHWVRQAPGQGLEWMAWINPKSGGTFYAQNFKGRVTVTRDTSINTAYLELTSLRLDDTSTYYCARGRDYQDQGAADLWGQGTMVTVSS VL: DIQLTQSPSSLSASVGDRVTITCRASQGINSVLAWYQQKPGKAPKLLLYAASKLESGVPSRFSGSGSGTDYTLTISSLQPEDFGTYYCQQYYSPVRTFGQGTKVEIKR ... 74%
2. 1D2 SDR mutant HY102V (antibody, IgG1, V domains shown, also called X5 V) VH: QVQLVQSGAEVKKPGASVKVSCEASGYTFTDKYLHWVRQAPGQGLEWMAWINPKSGGTFYAQNFKGRVTVTRDTSINTAYLELTSLRLDDTSTYYCARGRDVYDQGAADLWGQGTMVTVSS VL: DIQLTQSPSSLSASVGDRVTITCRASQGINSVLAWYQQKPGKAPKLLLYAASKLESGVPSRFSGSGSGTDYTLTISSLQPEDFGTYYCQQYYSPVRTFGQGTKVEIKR ... 71%
3. 1D2 SDR mutant HK32S (antibody, IgG1, V domains shown, also called X2 S) VH: QVQLVQSGAEVKKPGASVKVSCEASGYTFTDSYLHWVRQAPGQGLEWMAWINPKSGGTFYAQNFKGRVTVTRDTSINTAYLELTSLRLDDTSTYYCARGRDYYDQGAADLWGQGTMVTVSS VL: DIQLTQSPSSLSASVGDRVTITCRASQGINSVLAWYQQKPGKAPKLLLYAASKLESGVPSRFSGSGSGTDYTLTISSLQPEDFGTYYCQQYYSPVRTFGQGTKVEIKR ... 78%

// below: binding affinity % of 1D2 requested for another binder
Prompt line: What value of binding affinity % of 1D2 has been recorded for this entry: 1D2 SDR mutant HQ105N (antibody, IgG1, V domains shown, also called X7 N) VH: QVQLVQSGAEVKKPGASVKVSCEASGYTFTDKYLHWVRQAPGQGLEWMAWINPKSGGTFYAQNFKGRVTVTRDTSINTAYLELTSLRLDDTSTYYCARGRDYYDNGAADLWGQGTMVTVSS VL: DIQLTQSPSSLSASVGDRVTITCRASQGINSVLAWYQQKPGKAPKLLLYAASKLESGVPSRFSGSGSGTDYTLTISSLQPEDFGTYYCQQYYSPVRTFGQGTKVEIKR
Response line: 156%
